Target: T1, EsCas13d, nuclease-dead (Eubacterium siraeum, UniProt B0MS50, R295A;H300A;R849A;H854A)
T1 sequence: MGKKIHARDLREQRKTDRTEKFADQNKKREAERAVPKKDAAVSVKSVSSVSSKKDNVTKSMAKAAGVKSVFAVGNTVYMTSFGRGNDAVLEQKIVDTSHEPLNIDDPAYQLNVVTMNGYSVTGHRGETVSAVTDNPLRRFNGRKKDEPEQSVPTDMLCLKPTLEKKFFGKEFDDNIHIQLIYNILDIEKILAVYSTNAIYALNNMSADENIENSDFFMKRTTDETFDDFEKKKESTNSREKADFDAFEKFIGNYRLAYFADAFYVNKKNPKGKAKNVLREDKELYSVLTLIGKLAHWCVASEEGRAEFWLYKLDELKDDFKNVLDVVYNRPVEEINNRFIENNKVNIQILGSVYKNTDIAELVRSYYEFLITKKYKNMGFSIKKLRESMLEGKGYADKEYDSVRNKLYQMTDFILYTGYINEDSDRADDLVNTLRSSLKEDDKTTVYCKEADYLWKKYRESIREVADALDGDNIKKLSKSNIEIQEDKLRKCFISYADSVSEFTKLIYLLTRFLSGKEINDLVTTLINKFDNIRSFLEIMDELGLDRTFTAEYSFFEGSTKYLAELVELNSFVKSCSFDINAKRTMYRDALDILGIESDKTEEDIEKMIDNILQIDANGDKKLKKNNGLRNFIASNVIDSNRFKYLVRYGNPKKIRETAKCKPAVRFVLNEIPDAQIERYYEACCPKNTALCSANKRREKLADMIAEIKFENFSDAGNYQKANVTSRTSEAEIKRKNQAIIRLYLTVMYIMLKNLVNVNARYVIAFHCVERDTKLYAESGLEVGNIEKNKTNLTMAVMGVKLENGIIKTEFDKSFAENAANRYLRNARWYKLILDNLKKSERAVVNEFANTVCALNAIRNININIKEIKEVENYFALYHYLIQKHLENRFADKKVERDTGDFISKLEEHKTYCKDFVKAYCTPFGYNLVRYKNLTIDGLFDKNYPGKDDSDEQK
Assay: crRNA (strand 1, pre-loaded); Mg2+; 40 mM Tris-HCl pH 7.5, 150 mM NaCl, 6 mM MgCl2, 1 mM DTT, 0.1% Tween-20, 0.2 mg/ml BSA; 25 C; 10 min per concentration, then washed
Details: tags: His6-TwinStrep-SUMO cleaved; N-terminal SNAP kept (SNAP-Surface 488); label: 3' end held by stalled T7 RNA polymerase
Hi there, I'd appreciate the recorded Kd for every entry that follows.
Write the figure, then the unit, nothing else.

For this binder ( target 2 MT 5'PFS UGG 3'PFS UCU (mixed) RNA 1: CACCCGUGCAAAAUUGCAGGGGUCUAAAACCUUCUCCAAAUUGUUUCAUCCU RNA 2: GGGAAUGGAUCCACAUCUACGAAUUCUGGAGGAUGAAACAAUUUGGAGAAGUCUAGAUCGGAAGAGCACACGU ), measured Kd is 41 nM

For this binder ( target 2 MT 5'PFS CAG 3'PFS ACG (mixed) RNA 1: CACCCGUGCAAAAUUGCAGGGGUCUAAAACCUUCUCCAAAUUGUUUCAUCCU RNA 2: GGGAAUGGAUCCACAUCUACGAAUUCCAGAGGAUGAAACAAUUUGGAGAAGACGAGAUCGGAAGAGCACACGU ), measured Kd is 5.8 nM

For this binder ( target 1 C2U,A9U (mixed) RNA 1: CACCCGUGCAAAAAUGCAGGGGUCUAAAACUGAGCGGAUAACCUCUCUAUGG RNA 2: GGGAAUGGAUCCACAUCUACGAAUUCGUACCAUAGAGAGGUUUUCCGCUUACCGAGAUCGGAAGAGCACACGU ), measured Kd is 8.5 nM

For this binder ( target 1 U8G (mixed) RNA 1: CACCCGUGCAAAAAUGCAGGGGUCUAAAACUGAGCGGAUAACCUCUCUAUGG RNA 2: GGGAAUGGAUCCACAUCUACGAAUUCGUACCAUAGAGAGGUUAGCCGCUCACCGAGAUCGGAAGAGCACACGU ), measured Kd is 19.2 nM

For this binder ( target 1 MT 5'PFS UCC 3'PFS AUA (mixed) RNA 1: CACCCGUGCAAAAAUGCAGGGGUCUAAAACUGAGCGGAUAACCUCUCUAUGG RNA 2: GGGAAUGGAUCCACAUCUACGAAUUCUCCCCAUAGAGAGGUUAUCCGCUCAAUAAGAUCGGAAGAGCACACGU ), measured Kd is 13.7 nM

For this binder ( target 1 MT 5'PFS CUG 3'PFS UCC (mixed) RNA 1: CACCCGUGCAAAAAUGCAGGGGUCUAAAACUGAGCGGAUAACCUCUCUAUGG RNA 2: GGGAAUGGAUCCACAUCUACGAAUUCCUGCCAUAGAGAGGUUAUCCGCUCAUCCAGAUCGGAAGAGCACACGU ), measured Kd is 4.75 nM

For this binder ( target 3 insA 3' of 8,insC 3' of 3 (mixed) RNA 1: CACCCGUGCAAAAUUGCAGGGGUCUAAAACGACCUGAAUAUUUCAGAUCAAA RNA 2: GGGAAUGGAUCCACAUCUACGAAUUCGUUUUUGAUCUGAAAUAUAUCAGGCUCUGCAGAUCGGAAGAGCACACGU ), measured Kd is 43 nM

For this binder ( target 1 del4 (mixed) RNA 1: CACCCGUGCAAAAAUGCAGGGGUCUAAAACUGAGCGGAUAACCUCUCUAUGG RNA 2: GGGAAUGGAUCCACAUCUACGAAUUCGUACCAUAGAGAGGUUAUCCGUCACCGAGAUCGGAAGAGCACACGU ), measured Kd is 34 nM

Reference for the values: paper PMC10786891
